- EXPERIMENT: LYSA solubility assay
- Assay type: physicochemical
- SETUP CONDITIONS: aqueous buffer, thermodynamic from solid; 0.05 M phosphate buffer (pH 6.5)
MEASUREMENT KIND: solubility thermodynamic

## Task Reported solubility thermodynamic, compound C[C@@H]1CN(c2ccc(C(F)(F)F)c3ncccc23)C[C@H](C(=O)NC2CN(C)CC23CC3)O1 (stereo partly shown) : ____
## Result > 685 µg/mL

====

- EXPERIMENT: LYSA solubility assay
- Type: physicochemical
- SETUP CONDITIONS: 0.05 M phosphate buffer, pH 6.5, aqueous buffer, thermodynamic from solid
MEASUREMENT KIND: solubility thermodynamic

Solved cases below.
>>> result("C[C@@H]1CN(c2ccc(C(F)(F)F)c3ncccc23)C[C@H](C(=O)NC[C@@H]2C[C@@H](F)CN2)O1")
"> 585 µg/mL"
>>> result("C[C@@H]1CN(c2ccc(C(F)(F)F)c3ncccc23)C[C@H](C(=O)N2CCC3(CCNCC3)CC2)O1")
"> 640 µg/mL"
>>> result("C[C@@H]1CN(c2ccc(C(F)(F)F)c3ncccc23)C[C@H](C(=O)N2CCC(N)C2)O1 (stereo partly shown)")
"> 655 µg/mL"
>>> result("C[C@@H]1CN(c2ccc(C(F)(F)F)c3ncccc23)C[C@H](C(=O)NCCN2CCOCC2)O1")
"> 725 µg/mL"
>>> result("C[C@@H]1CN(c2ccc(I)c3ncccc23)C[C@H](C(=O)NC2CCN(C)CC2)O1")
"> 650 µg/mL"

## Task Endpoint output: solubility thermodynamic of C[C@@H]1CN(c2ccc(C(F)(F)F)c3ncccc23)C[C@H](C(=O)NCC2CNCC2(F)F)O1 (stereo partly shown) . Value?
## Result 565 µg/mL

## Task // query: C[C@@H]1CN(c2ccc(C(F)(F)F)c3ncccc23)C[C@H](C(=O)NC2C[C@H]3C[C@@H]2CN3)O1 (stereo partly shown)
## Result > 600 µg/mL
